System: Staphylococcus aureus
testProtocol: Antibacterial activity against methicillin-resistant Staphylococcus aureus clinical isolate 1-may after 16 to 20 hrs by broth microdilution method
Type: functional

moleculeSmiles | MIC, µg/mL
CCCCCCCC[N+](C)(C)CC(=O)Nc1ccc(C(=O)/C=C/c2ccccc2)cc1.[Cl-] | 1
CCCCCCCC[N+](C)(C)CC(=O)Nc1ccc(C(=O)/C=C/c2ccccc2F)cc1.[Cl-] | 1
CCCCCCCC[N+](C)(C)CC(=O)Nc1ccc(C(=O)/C=C/c2cccc(Cl)c2)cc1.[Cl-] | 1
CCCCCCCC[N+](C)(C)CC(=O)Nc1ccc(C(=O)/C=C/c2ccc3ccccc3c2)cc1.[Cl-] | 2
CCCCCCCC[N+](C)(C)CC(=O)Nc1ccc(C(=O)/C=C/c2ccc(Cl)cc2)cc1.[Cl-] | 2
CCCCCCCC[N+](C)(C)CC(=O)Nc1ccc(C(=O)/C=C/c2ccc(F)cc2F)cc1.[Cl-] | 1
CCCCCCCC[N+](C)(C)CC(=O)Nc1ccc(C(=O)/C=C/c2ccccc2C(F)(F)F)cc1.[Cl-] | 0.5
CCCCCCCC[N+](C)(C)CC(=O)Nc1ccc(C(=O)/C=C/c2cccs2)cc1.[Cl-] | 2
CCCCCCCC[N+](C)(C)CC(=O)Nc1ccc(C(=O)/C=C/c2ccc(C)cc2)cc1.[Cl-] | 1
